System: HeLa Kyoto
procedure summary: melting temperature (median over replicates), in situ; higher = more thermally stable
assay context: cell cycle stage: G1/S
# key: entry, value: melting temperature
measured metric: melting temperature

• MAELTALESLIEMGFPRGRAEKALALTGNQGIEAAMDWLMEHEDDPDVDEPLETPLGHILGREPTSSEQGGLEGSGSAAGEGKPALSEEERQEQTKRMLELVAQKQREREEREEREALERERQRRRQGQELSAARQRLQEDEMRRAAEERRREKAEELAARQRVREKIERDKAERAKKYGGSVGSQPPPVAPEPGPVPSSPSQEPPTKREYDQCRIQVRLPDGTSLTQTFRAREQLAAVRLYVELHRGEELGGGQDPVQLLSGFPRRAFSEADMERPLQELGLVPSAVLIVAKKCPS [UBXN1] = 52.1 °C
• MLSLDFLDDVRRMNKRQLYYQVLNFGMIVSSALMIWKGLMVITGSESPIVVVLSGSMEPAFHRGDLLFLTNRVEDPIRVGEIVVFRIEGREIPIVHRVLKIHEKQNGHIKFLTKGDNNAVDDRGLYKQGQHWLEKKDVVGRARGFVPYIGIVTILMNDYPKFKYAVLFLLGLFVLVHRE [SEC11A] = 53.2 °C

====

# key: entry, value: melting temperature
Test system: HeLa Kyoto
procedure summary: melting temperature (median over replicates), in situ; higher = more thermally stable
assay context: cell cycle stage: G1/S
measured metric: melting temperature (°C)

* MDDKAFTKELDQWVEQLNECKQLNENQVRTLCEKAKEILTKESNVQEVRCPVTVCGDVHGQFHDLMELFRIGGKSPDTNYLFMGDYVDRGYYSVETVTLLVALKVRYPERITILRGNHESRQITQVYGFYDECLRKYGNANVWKYFTDLFDYLPLTALVDGQIFCLHGGLSPSIDTLDHIRALDRLQEVPHEGPMCDLLWSDPDDRGGWGISPRGAGYTFGQDISETFNHANGLTLVSRAHQLVMEGYNWCHDRNVVTIFSAPNYCYRCGNQAAIMELDDTLKYSFLQFDPAPRRGEPHVTRRTPDYFL [PPP2CB] | 45.7
* MAEPFLSEYQHQPQTSNCTGAAAVQEELNPERPPGAEERVPEEDSRWQSRAFPQLGGRPGPEGEGSLESQPPPLQTQACPESSCLREGEKGQNGDDSSAGGDFPPPAEVEPTPEAELLAQPCHDSEASKLGAPAAGGEEEWGQQQRQLGKKKHRRRPSKKKRHWKPYYKLTWEEKKKFDEKQSLRASRIRAEMFAKGQPVAPYNTTQFLMDDHDQEEPDLKTGLYSKRAAAKSDDTSDDDFMEEGGEEDGGSDGMGGDGSEFLQRDFSETYERYHTESLQNMSKQELIKEYLELEKCLSRMEDENNRLRLESKRLGGDDARVRELELELDRLRAENLQLLTENELHRQQERAPLSKFGD [HEXIM1] | 57.6
* MAAAPLKVCIVGSGNWGSAVAKIIGNNVKKLQKFASTVKMWVFEETVNGRKLTDIINNDHENVKYLPGHKLPENVVAMSNLSEAVQDADLLVFVIPHQFIHRICDEITGRVPKKALGITLIKGIDEGPEGLKLISDIIREKMGIDISVLMGANIANEVAAEKFCETTIGSKVMENGLLFKELLQTPNFRITVVDDADTVELCGALKNIVAVGAGFCDGLRCGDNTKAAVIRLGLMEMIAFARIFCKGQVSTATFLESCGVADLITTCYGGRNRRVAEAFARTGKTIEELEKEMLNGQKLQGPQTSAEVYRILKQKGLLDKFPLFTAVYQICYESRPVQEMLSCLQSHPEHT [GPD1L] | 53.2
* MVGSLNCIVAVSQNMGIGKNGDLPWPPLRNEFRYFQRMTTTSSVEGKQNLVIMGKKTWFSIPEKNRPLKGRINLVLSRELKEPPQGAHFLSRSLDDALKLTEQPELANKVDMVWIVGGSSVYKEAMNHPGHLKLFVTRIMQDFESDTFFPEIDLEKYKLLPEYPGVLSDVQEEKGIKYKFEVYEKND [DHFR] | 47.9
* MTAPCPPPPPDPQFVLRGTQSPVHALHFCEGAQAQGRPLLFSGSQSGLVHIWSLQTRRAVTTLDGHGGQCVTWLQTLPQGRQLLSQGRDLKLCLWDLAEGRSAVVDSVCLESVGFCRSSILAGGQPRWTLAVPGRGSDEVQILEMPSKTSVCALKPKADAKLGMPMCLRLWQADCSSRPLLLAGYEDGSVVLWDVSEQKVCSRIACHEEPVMDLDFDSQKARGISGSAGKALAVWSLDWQQALQVRGTHELTNPGIAEVTIRPDRKILATAGWDHRIRVFHWRTMQPLAVLAFHSAAVQCVAFTADGLLAAGSKDQRISLWSLYPRA [GNB1L] | 54.6
* MADGKAGDEKPEKSQRAGAAGGPEEEAEKPVKTKTVSSSNGGESSSRSAEKRSAEEEAADLPTKPTKISKFGFAIGSQTTKKASAISIKLGSSKPKETVPTLAPKTLSVAAAFNEDEDSEPEEMPPEAKMRMKNIGRDTPTSAGPNSFNKGKHGFSDNQKLWERNIKSHLGNVHDQDN [PCNP] | 59.4
* MAEVPPGPSSLLPPPAPPAPAAVEPRCPFPAGAALACCSEDEEDDEEHEGGGSRSPAGGESATVAAKGHPCLRCPQPPQEQQQLNGLISPELRHLRAAASLKSKVLSVAEVAATTATPDGGPRATATKGAGVHSGERPPHSLSSNARTAVPSPVEAAAASDPAAARNGLAEGTEQEEEEEDEQVRLLSSSLTADCSLRSPSGREVEPGEDRTIRYVRYESELQMPDIMRLITKDLSEPYSIYTYRYFIHNWPQLCFLAMVGEECVGAIVCKLDMHKKMFRRGYIAMLAVDSKYRRNGIGTNLVKKAIYAMVEGDCDEVVLETEITNKSALKLYENLGFVRDKRLFRYYLNGVDALRLKLWLR [NAA30] | 51.9
* MSAARESHPHGVKRSASPDDDLGSSNWEAADLGNEERKQKFLRLMGAGKKEHTGRLVIGDHKSTSHFRTGEEDKKINEELESQYQQSMDSKLSGRYRRHCGLGFSEVEDHDGEGDVAGDDDDDDDDSPDPESPDDSESDSESEKEESAEELQAAEHPDEVEDPKNKKDAKSNYKMMFVKSSGS [SMAP] | 55
* MAAFRDIEEVSQGLLSLLGANRAEAQQRRLLGRHEQVVERLLETQDGAEKQLREILTMEKEVAQSLLNAKEQVHQGGVELQQLEAGLQEAGEEDTRLKASLLQLTRELEELKEIEADLERQEKEVDEDTTVTIPSAVYVAQLYHQVSKIEWDYECEPGMVKGIHHGPSVAQPIHLDSTQLSRKFISDYLWSLVDTEW [SPC24] | 49.2
* MRCCHICKLPGRVMGIRVLRLSLVVILVLLLVAGALTALLPSVKEDKMLMLRREIKSQGKSTMDSFTLIMQTYNRTDLLLKLLNHYQAVPNLHKVIVVWNNIGEKAPDELWNSLGPHPIPVIFKQQTANRMRNRLQVFPELETNAVLMVDDDTLISTPDLVFAFSVWQQFPDQIVGFVPRKHVSTSSGIYSYGSFEMQAPGSGNGDQYSMVLIGASFFNSKYLELFQRQPAAVHALIDDTQNCDDIAMNFIIAKHIGKTSGIFVKPVNMDNLEKETNSGYSGMWHRAEHALQRSYCINKLVNIYDSMPLRYSNIMISQFGFPYANYKRKI [EXTL2] | 56.7

====

Tested on: HeLa Kyoto
procedure summary: solubility in G1/S (NP-40 vs SDS abundance) (log2 ratio); higher = more soluble
assay context: cell cycle stage: G1/S
measured metric: solubility in G1/S (log2)

• MFPFYSCWRTGLLLLLLAVAVRESWQTEEKTCDLVGEKGKESEKELALVKRLKPLFNKSFESTVGQGSDTYIYIFRVCREAGNHTSGAGLVQINKSNGKETVVGRLNETHIFNGSNWIMLIYKGGDEYDNHCGKEQRRAVVMISCNRHTLADNFNPVSEERGKVQDCFYLFEMDSSLACSPEISHLSVGSILLVTFASLVAVYVVGGFLYQRLVVGAKGMEQFPHLAFWQDLGNLVADGCDFVCRSKPRNVPAAYRGVGDDQLGEESEERDDHLLPM [M6PR] = 0.0483
• MPKKFQGENTKSAAARARRAEAKAAADAKKQKELEDAYWKDDDKHVMRKEQRKEEKEKRRLDQLERKKETQRLLEEEDSKLKGGKAPRVATSSKVTRAQIEDTLRRDHQLREAPDTAEKAKSHLEVPLEENVNRRVLEEGSVEARTIEDAIAVLSVAEEAADRHPERRMRAAFTAFEEAQLPRLKQENPNMRLSQLKQLLKKEWLRSPDNPMNQRAVPFNAPK [CCDC124] = 0.214
• MAAPAVSGLSRQVRCFSTSVVRPFAKLVRPPVQVYGIEGRYATALYSAASKQNKLEQVEKELLRVAQILKEPKVAASVLNPYVKRSIKVKSLNDITAKERFSPLTTNLINLLAENGRLSNTQGVVSAFSTMMSVHRGEVPCTVTSASPLEEATLSELKTVLKSFLSQGQVLKLEAKTDPSILGGMIVRIGEKYVDMSVKTKIQKLGRAMREIV [ATP5O] = 0.365
• MRPLDIVELAEPEEVEVLEPEEDFEQFLLPVINEMREDIASLTREHGRAYLRNRSKLWEMDNMLIQIKTQVEASEESALNHLQNPGDAAEGRAAKRCEKAEEKAKEIAKMAEMLVELVRRIEKSESS [MRFAP1] = 0.156
• MPKRKVTFQGVGDEEDEDEIIVPKKKLVDPVAGSGGPGSRFKGKHSLDSDEEEDDDDGGSSKYDILASEDVEGQEAATLPSEGGVRITPFNLQEEMEEGHFDADGNYFLNRDAQIRDSWLDNIDWVKIRERPPGQRQASDSEEEDSLGQTSMSAQALLEGLLELLLPRETVAGALRRLGARGGGKGRKGPGQPSSPQRLDRLSGLADQMVARGNLGVYQETRERLAMRLKGLGCQTLGPHNPTPPPSLDMFAEELAEEELETPTPTQRGEAESRGDGLVDVMWEYKWENTGDAELYGPFTSAQMQTWVSEGYFPDGVYCRKLDPPGGQFYNSKRIDFDLYT [CD2BP2] = 0.00357
• MQDTGSVVPLHWFGFGYAALVASGGIIGYVKAGSVPSLAAGLLFGSLAGLGAYQLSQDPRNVWVFLATSGTLAGIMGMRFYHSGKFMPAGLIAGASLLMVAKVGVSMFNRPH [TMEM14C] = 0.356
• MAAGGRMEDGSLDITQSIEDDPLLDAQLLPHHSLQAHFRPRFHPLPTVIIVNLLWFIHLVFVVLAFLTGVLCSYPNPNEDKCPGNYTNPLKVQTVIILGKVILWILHLLLECYIQYHHSKIRNRGYNLIYRSTRHLKRLALMIQSSGNTVLLLILCMQHSFPEPGRLYLDLILAILALELICSLICLLIYTVKIRRFNKAKPEPDILEEEKIYAYPSNITSETGFRTISSLEEIVEKQGDTIEYLKRHNALLSKRLLALTSSDLGCQPSRT [TMEM192] = 0.0852
• MSSSVEQKKGPTRQRKCGFCKSNRDKECGQLLISENQKVAAHHKCMLFSSALVSSHSDNESLGGFSIEDVQKEIKRGTKLMCSLCHCPGATIGCDVKTCHRTYHYHCALHDKAQIREKPSQGIYMVYCRKHKKTAHNSEADLEESFNEHELEPSSPKSKKKSRKGRPRKTNFKGLSEDTRSTSSHGTDEMESSSYRDRSPHRSSPSDTRPKCGFCHVGEEENEARGKLHIFNAKKAAAHYKCMLFSSGTVQLTTTSRAEFGDFDIKTVLQEIKRGKRMKCTLCSQPGATIGCEIKACVKTYHYHCGVQDKAKYIENMSRGIYKLYCKNHSGNDERDEEDEERESKSRGKVEIDQQQLTQQQLNGN [PHF6] = -0.717
• MGAQLSTLGHMVLFPVWFLYSLLMKLFQRSTPAITLESPDIKYPLRLIDREIISHDTRRFRFALPSPQHILGLPVGQHIYLSARIDGNLVVRPYTPISSDDDKGFVDLVIKVYFKDTHPKFPAGGKMSQYLESMQIGDTIEFRGPSGLLVYQGKGKFAIRPDKKSNPIIRTVKSVGMIAGGTGITPMLQVIRAIMKDPDDHTVCHLLFANQTEKDILLRPELEELRNKHSARFKLWYTLDRAPEAWDYGQGFVNEEMIRDHLPPPEEEPLVLMCGPPPMIQYACLPNLDHVGHPTERCFVF [CYB5R3] = -0.215
• MAAAAPGNGRASAPRLLLLFLVPLLWAPAAVRAGPDEDLSHRNKEPPAPAQQLQPQPVAVQGPEPARVEKIFTPAAPVHTNKEDPATQTNLGFIHAFVAAISVIIVSELGDKTFFIAAIMAMRYNRLTVLAGAMLALGLMTCLSVLFGYATTVIPRVYTYYVSTVLFAIFGIRMLREGLKMSPDEGQEELEEVQAELKKKDEEFQRTKLLNGPGDVETGTSITVPQKKWLHFISPIFVQALTLTFLAEWGDRSQLTTIVLAAREDPYGVAVGGTVGHCLCTGLAVIGGRMIAQKISVRTVTIIGGIVFLAFAFSALFISPDSGF [TMEM165] = 0.0487
• MAALRVLLSCVRGPLRPPVRCPAWRPFASGANFEYIIAEKRGKNNTVGLIQLNRPKALNALCDGLIDELNQALKTFEEDPAVGAIVLTGGDKAFAAGADIKEMQNLSFQDCYSSKFLKHWDHLTQVKKPVIAAVNGYAFGGGCELAMMCDIIYAGEKAQFAQPEILIGTIPGAGGTQRLTRAVGKSLAMEMVLTGDRISAQDAKQAGLVSKICPVETLVEEAIQCAEKIASNSKIVVAMAKESVNAAFEMTLTEGSKLEKKLFYSTFATDDRKEGMTAFVEKRKANFKDQ [ECHS1] = 0.518
